The values you see were collected from PubChem BioAssay (NCI).

System: 786-0 renal
assay_text: NCI-60 one-dose screen, 48 h
run_conditions: 10 µM unless noted
This is part of a sample that, as a whole, favours compounds with a hit. Of some 83,000 tested, about 20% had one in any assay. Activity calls are given as the source filed them. Rule for the calls: active = growth percent below 10; inactive = the rest.
Classes used: active, inactive

{"compound": "COc1ccc(C2=NN(C(=O)[C@H]3[C@@H](c4ccco4)c4sc(=O)[nH]c4S[C@@H]3C)C(c3ccc4ccccc4c3)C2)cc1 (stereo not given in full)", "answer_label": "inactive"}
{"compound": "Cc1ccc(Nc2nnc(-c3c[nH]c4ccccc34)o2)c(C)c1", "answer_label": "active"}
{"compound": "CCN(C(=O)CN1C(=O)/C(=C/c2ccco2)SC1=S)C1CCS(=O)(=O)C1 (stereo not given)", "answer_label": "inactive"}
{"compound": "NS(=O)(=O)c1ccc(Nc2nc(SCC(=O)c3ccc(F)cc3)nc3ccccc23)cc1", "answer_label": "inactive"}
{"compound": "CCOc1ccccc1[C@H]1C(C(=O)c2ccc(Cl)cc2)C2(N[C@@H]1c1ccccc1)C(=O)Nc1ccc(Cl)cc12 (stereo not given in full)", "answer_label": "inactive"}
{"compound": "O=C(Nc1ccc(-c2ccc3c(c2)NC(=O)/C3=C\\c2ccc[nH]2)cc1)Nc1cccc(Cl)c1", "answer_label": "active"}
{"compound": "CCOC(=O)c1ccc(NC(=S)NC(=O)c2ccc(NC(=O)C(C)C)cc2OC)cc1", "answer_label": "inactive"}
{"compound": "CCc1ccccc1-c1nc(CN[C@@H]2C[C@@H]3C[C@H]([C@H]2C)C3(C)C)c(C)o1", "answer_label": "active"}
{"compound": "COc1cccc(-c2ccc(/C=N/NC(=O)c3[nH]c4ccc(Br)cc4c3-c3ccccc3)s2)c1", "answer_label": "active"}
{"compound": "NNc1ncnc2sc3c(c12)CCN(Cc1ccccc1)C3", "answer_label": "inactive"}

###

Readings of growth for the listed compounds
System: NCI-H322M lung
assay_text: NCI-60 one-dose screen, 48 h (100 = growth as untreated, 0 = no growth, -100 = all killed)
run_conditions: 10 µM unless noted
Description: Growth inhibition of the NCI-H322M human Non-Small Cell Lung tumor cell line is measured as a screen for anti-cancer activity. Cells are grown in 96 well plates and exposed to the test compound for 48 hours. Compounds are tested at a single concentration, which is 10^-5 M for most compounds. The reported endpoint is percent growth (GI% or GIPRCNT), where numbers from 0 - 100% represent growth inhibition, and numbers from -100% - 0 represent cell death. […]
The panel holds about 83,000 compounds, 20% with a hit somewhere; the sample as a whole holds those more often.

{"compound": "COc1ccc2[nH]c(O)c(N=Nc3nc(-c4ccc(Cl)cc4)cs3)c2c1", "growth, %": 12.8}
{"compound": "COc1ccc2c(c1)N=c1c-2cc2c(O)[nH]c(=S)n2c1=O", "growth, %": 78.1}
{"compound": "O=c1ccc(Cn2c(C(F)(F)F)cc3c(Cl)ncnc32)c[nH]1", "growth, %": 67.2}
{"compound": "COc1ccc(NC(=O)Nc2nc3ccc([N+](=O)[O-])cc3s2)cc1", "growth, %": 13.1}
{"compound": "CC(C)(C)OC(=O)N1CCC2(CC1)Oc1ccccc1[C@H]1CC(c3ccc(Br)cc3)=NN12", "growth, %": 86.6}
{"compound": "COc1ccc(C(=O)NNC(=O)CSc2nc3sc4c(c3c(=O)n2-c2ccc(Cl)cc2)CCCC4)cc1", "growth, %": 73.5}
{"compound": "Cc1ccc(O)cc1Nc1nc(SCCN2CCOCC2)nc2c1cnn2CC(Cl)c1ccc(Br)cc1 (stereo not given)", "growth, %": 73.5}
{"compound": "COc1cccc(NC(=O)c2ccc(NC(=O)CCl)s2)c1", "growth, %": 101}
{"compound": "COc1c(B(O)O)cc(F)cc1-c1nc2ccc3[nH]ncc3c2c2c1COCC2", "growth, %": 78.4}
{"compound": "Cn1cc(-c2cc(N)n3nc(-c4c[nH]c5ccc(Cl)cc45)cc3n2)c2cccnc21", "growth, %": -83.6}
